targetUnderTest: Angiotensin II receptor
methodDescription: In vitro angiotensin II mesenteric artery receptor binding assay (test 1)
assaySetup: rat mesenteric artery membrane fraction, 0.2 nM 125I-Ang II, 22°C, 90 minutes
Below, each entry is listed with its recorded IC50.
The answer is to be given in nM; state only the numeric part.

[
  {
    "molecule": "CCCc1nc2c(=O)n3n(c(=O)c2n1Cc1ccc(-c2ccccc2-c2nnn[nH]2)cc1)C(C(=O)N(CC)CC)CCC3C (stereo not shown)",
    "unitsLabel": "nM",
    "recordedMeasurement": 47
  }
]

// sample CCCCc1nc2c(=O)n3n(c(=O)c2n1Cc1ccc(-c2ccccc2-c2nnn[nH]2)cc1)C(C)CCC3C(=O)NC(C)(C)C (stereo not shown) , its IC50 was 8.2

// sample CCCCc1nc2c(=O)n3n(c(=O)c2n1Cc1ccc(-c2ccccc2-c2nn[nH]n2)cc1)CC(C)C(C)C3 (stereo not shown) , its IC50 was 4.6
